Every entry's value here was drawn from patent US5756505A.

tested on: gastric mucosa; assay: PD: Gastric Mucosal Integrity Test; assay type: in vivo, rat (male Crj:SD); details: rat, 100 mg/kg into ex vivo chamber, 60 minutes
This listing pairs compounds with measured PD: change in gastric mucosal potential difference, level.
metric-name: PD: change in gastric mucosal potential difference, level

compound | target-of-assay | measured-number
CC(C)Cc1cc(C(=O)N2CCN(CC(C)C)CC2)ccc1OCc1ccc([N+](=O)[O-])cc1.Cl [Example 13] | gastric mucosa | 2
CC(C)CN1CCN(C(=O)c2ccc(OCc3ccccc3)cc2)CC1 [Example 3] | gastric mucosa | 5
CC(C)Cc1cc(C(=O)N2CCN(CCO)CC2)ccc1OCc1ccc(F)cc1 [Example 9] | gastric mucosa | 2
CC(C)Cc1cc(C(=O)N2CCN(CC(C)C)CC2)ccc1OCc1ccccc1F [Example 18] | gastric mucosa | 3
CC(C)Cc1cc(CN2CCN(CC(C)C)CC2)ccc1OCc1ccc(F)cc1.Cl.Cl [Example 20] | gastric mucosa | 2
CC(C)Cc1cc(C(=O)N2CCN(CC(C)C)CC2)ccc1OCc1ccc(Cl)cc1 [Example 17] | gastric mucosa | 4
CC(C)Cc1cc(C(=O)N2CCN(CC(C)C)CC2)ccc1OCc1ccccc1 [Example 16] | gastric mucosa | 5
CC(C)Cc1cc(C(=O)N2CCN(CC(C)C)CC2)ccc1OCc1ccc(F)cc1.Cl [Example 22] | gastric mucosa | 5
CC(C)CN1CCN(C(=O)c2ccc(OCc3ccc(F)cc3)c([N+](=O)[O-])c2)CC1.Cl [Example 8] | gastric mucosa | 2
Cc1cccc(COc2ccc(C(=O)N3CCN(CC(C)C)CC3)cc2CC(C)C)c1F.Cl [Example 12] | gastric mucosa | 2
CC(C)CN1CCN(C(=O)c2ccc(OCc3ccc(F)cc3)cc2)CC1.Cl [Example 2] | gastric mucosa | 2
CC(C)Cc1cc(C(=O)N2CCN(CC(C)C)CC2)ccc1OCc1ccc(F)cc1 [Example 21] | gastric mucosa | 5
CC(C)Cc1cc(C(=O)N2CCN(CC(C)C)CC2)ccc1OCc1ccccc1F.Cl [Example 19] | gastric mucosa | 2
CC(C)Cc1cc(C(=O)N2CCN(CC(C)C)CC2)ccc1OCc1ccc(F)cc1F.Cl [Example 24] | gastric mucosa | 2
